So I've got a bunch of sequences here, and I need their shrunken log2 fold change values.
System: Escherichia coli TOP10
Experimental Details: shrunken log2 fold change of peptide-encoding DNA abundance (4.5 h post-induction vs induction); higher = less antimicrobial activity (less host growth inhibition)
Condition Summary: time post-induction: 4.5 h; library: site-saturation at positions 5, 18, 19, 20
Answers are plain numbers.

Worked examples, 5 sequences total:
[[record]]
sequence_string = "RRIRYRPPRLPRPRPRPAIWPRP"
recorded_number = 0.0587

[[record]]
sequence_string = "RRIRSRPPRLPRPRPRPARCPRP"
recorded_number = 0.114

[[record]]
sequence_string = "RRIRPRPPRLPRPRPRPMCFPRP"
recorded_number = -0.405

[[record]]
sequence_string = "RRIRPRPPRLPRPRPRPLIQPRP"
recorded_number = -0.0119

[[record]]
sequence_string = "RRIRWRPPRLPRPRPRPAYIPRP"
recorded_number = -0.0757


Provide each entry's shrunken log2 fold change from the list below.
1. RRIRKRPPRLPRPRPRPYSSPRP
2. RRIRDRPPRLPRPRPRPNWVPRP
3. RRIRDRPPRLPRPRPRPFFHPRP
4. RRIRRRPPRLPRPRPRPMREPRP
5. RRIRIRPPRLPRPRPRPMWCPRP
6. RRIRIRPPRLPRPRPRPPWCPRP
7. RRIRRRPPRLPRPRPRPIQTPRP

Solution:
1. -0.239
2. 0.0019
3. 0.119
4. 0.0493
5. -0.168
6. 1.45
7. 0.00408

Provide each entry's shrunken log2 fold change from the list below.
1. RRIRWRPPRLPRPRPRPPSQPRP
2. RRIRSRPPRLPRPRPRPSLWPRP

Solution:
1: 0.452; 2: 0.122

Problem: State its shrunken log2 fold change: `RRIRNRPPRLPRPRPRPAIRPRP`
Solution: -0.0992

----------
Test system: Escherichia coli TOP10
Experimental Details: shrunken log2 fold change of peptide-encoding DNA abundance (4.5 h post-induction vs induction); higher = less antimicrobial activity (less host growth inhibition)
Condition Summary: time post-induction: 4.5 h; library: site-saturation at positions 5, 18, 19, 20
Reported Property: shrunken log2 fold change
Give bare numbers.

Worked examples, 2 sequences total:
[[record]]
sequence_string = "RRIRQRPPRLPRPRPRPPEIPRP"
reported_property = "shrunken log2 fold change"
recorded_number = -0.0671

[[record]]
sequence_string = "RRIRCRPPRLPRPRPRPPQNPRP"
reported_property = "shrunken log2 fold change"
recorded_number = 0.801


Provide each entry's shrunken log2 fold change from the list below.
1. RRIRTRPPRLPRPRPRPCRDPRP
2. RRIRRRPPRLPRPRPRPPGNPRP
3. RRIRYRPPRLPRPRPRPIFCPRP

Solution:
[-0.118, 0.428, -0.201]

----------
System: Escherichia coli TOP10;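 further: peptides expressed intracellularly from a pBAD plasmid library in pooled LB shake-flask culture, induced with 0.3% L-arabinose, DNA abundance read by NGS, three biological replicates, DESeq2 with apeglm shrinkage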
Experimental Details: shrunken log2 fold change of peptide-encoding DNA abundance (4.5 h post-induction vs induction); higher = less antimicrobial activity (less host growth inhibition)
Condition Summary: time post-induction: 4.5 h; library: site-saturation at positions 5, 18, 19, 20
Decision: shrunken log2 fold change compared against 0.08; not below it gives T, below it gives F.

Worked cases, answers included:
[[record]]
sequence_string = "RRIRTRPPRLPRPRPRPGFYPRP"
class_label = "F"

[[record]]
sequence_string = "RRIRWRPPRLPRPRPRPARMPRP"
class_label = "T"

[[record]]
sequence_string = "RRIRLRPPRLPRPRPRPGLLPRP"
class_label = "F"

[[record]]
sequence_string = "RRIRTRPPRLPRPRPRPRTYPRP"
class_label = "F"

[[record]]
sequence_string = "RRIRFRPPRLPRPRPRPGQQPRP"
class_label = "F"

[[record]]
sequence_string = "RRIRARPPRLPRPRPRPCRTPRP"
class_label = "F"

[[record]]
sequence_string = "RRIRQRPPRLPRPRPRPQSNPRP"
class_label = "F"

[[record]]
sequence_string = "RRIRPRPPRLPRPRPRPKMEPRP"
class_label = "F"

[[record]]
sequence_string = "RRIRNRPPRLPRPRPRPIGWPRP"
class_label = "T"

[[record]]
sequence_string = "RRIRQRPPRLPRPRPRPNNQPRP"
class_label = "F"


Problem: # check: shrunken log2 fold change of `RRIRQRPPRLPRPRPRPHLEPRP` is greater than or equal to 0.08
Solution: F

Problem: # check: shrunken log2 fold change of `RRIRYRPPRLPRPRPRPLHTPRP` is greater than or equal to 0.08
Solution: F

Provenance of the data: the supplement of paper PMC9112550
